molecular target: Cytochrome P450 2C9 (Homo sapiens); assay: Cytochrome P450 Family 2 Subfamily C Member 9 (CYP2C9) small molecule antagonists: luciferase reporter qHTS assay (AID 1671198); details: P450-Glo CYP2C9 enzyme assay, luciferin luminescence; series mostly up to 115 µM; further: nearly all actives have a fitted effect of over 50% in size
Inconclusive results are not listed. The source made the active and inactive calls. The call rests on the fitted dose curve; in most records, active means well fitted inhibition curve with a large enough effect in the repeat runs; inconclusive means weak or mixed curves; inactive means no such curve, though single readings can be large or run the other way.
Outcome field: choose from Y (active), N (inactive)

// outcome(item) with item = "CC(C)c1ccc(CO)cc1" Y

// outcome(item) with item = "O=C(NC(=O)c1c(F)cccc1F)Nc1ccc(Cl)cc1" N

// outcome(item) with item = "C=CCc1ccc(OC)cc1" N

// outcome(item) with item = "CCOc1cc(C=O)ccc1O" N

// outcome(item) with item = "CCN(N=O)C(N)=O" N

// outcome(item) with item = CCCCC(CC)COC(=O)c1ccc(C(=O)OCC(CC)CCCC)c(C(=O)OCC(CC)CCCC)c1 (stereo unspecified) N

// outcome(item) with item = "CNC(=O)N(C)c1nnc(C(C)(C)C)s1" N

// outcome(item) with item = "COc1ccc(C=O)cc1" N

// outcome(item) with item = CC(C)C(=O)OCC(C)(C)C(OC(=O)C(C)C)C(C)C (stereo unspecified) N

// outcome(item) with item = "OCC(O)CO" N

// outcome(item) with item = "CCCCCCCCOC(=O)c1ccccc1C(=O)OCCCCCCCC" Y

* * *

assay: qHTS assay to identify small molecule agonists of the androgen receptor (AR) signaling pathway in the presence of an antagonist - cell viability counter screen (AID 1259379); conditions: MDA-kb2 viability, CellTiter-Fluor, 16 h; series mostly up to 92.4 µM; further: nearly all actives have a fitted effect of over 25% in size
Records with an inconclusive call do not appear. Activity calls are given as the source filed them. Calls come from the whole dose curve; as a rule, active = well fitted cell-killing curve with a large enough effect in the repeat runs; inconclusive = weak or mixed curves, or effect the other way; inactive = flat fitted curve, though single readings scatter.
Outcome field: choose from active, inactive

// outcome(item) with item = "CCCCCCOC(=O)c1ccccc1C(=O)OCCCCCC" inactive

// outcome(item) with item = "Cc1cc(C)cc(C)c1" inactive

// outcome(item) with item = "CC(C)(c1cc(Cl)c(O)c(Cl)c1)c1cc(Cl)c(O)c(Cl)c1" inactive

// outcome(item) with item = "Nc1c(Cl)cc([N+](=O)[O-])cc1Cl" inactive

// outcome(item) with item = "NCc1cccnc1" inactive

// outcome(item) with item = "C=CC(=O)OCCO" inactive

// outcome(item) with item = "CC(C)NC(C)C" inactive

// outcome(item) with item = "Oc1ccc(-c2ccccc2)cc1" inactive

// outcome(item) with item = C#CCOS(=O)OC1CCCCC1Oc1ccc(C(C)(C)C)cc1 (centres undefined) active

// outcome(item) with item = "Nc1ccc(Cl)cc1N" inactive

// outcome(item) with item = "CCCCCCCCCCCOC(=O)c1ccccc1C(=O)OCCCCCCCCCCC" inactive

// outcome(item) with item = "CCCCCc1cc(O)cc(O)c1" inactive

// outcome(item) with item = "CN(C)C(=O)Nc1ccc(Cl)cc1" inactive

// outcome(item) with item = "Oc1c(Cl)c(Cl)c(Cl)c(Cl)c1Cl" inactive

// outcome(item) with item = "CCOc1cc(Oc2ccc(C(F)(F)F)cc2Cl)ccc1[N+](=O)[O-]" inactive

// outcome(item) with item = "Cc1ccc2c(c1N)C(=O)c1ccccc1C2=O" active

// outcome(item) with item = "CCCCN(CC)c1c([N+](=O)[O-])cc(C(F)(F)F)cc1[N+](=O)[O-]" inactive

// outcome(item) with item = "CC(C)Oc1cc(-n2nc(C(C)(C)C)oc2=O)c(Cl)cc1Cl" inactive

// outcome(item) with item = "Cc1ccc(OP(=O)(Oc2ccc(C)cc2)Oc2ccc(C)cc2)cc1" inactive

// outcome(item) with item = "Nc1ccc(-c2ccccc2)cc1" inactive

// outcome(item) with item = "O=C(O)C(F)(F)C(F)(F)C(F)(F)C(F)(F)C(F)(F)C(F)(F)C(F)(F)F" inactive

// outcome(item) with item = CC(O)CCO (centres undefined) inactive

// outcome(item) with item = "C#C[C@]1(O)CC[C@H]2[C@@H]3CCC4=CC(=O)CC[C@]4(C)[C@H]3CC[C@@]21C" inactive

// outcome(item) with item = "c1ccc(NNc2ccccc2)cc1" inactive

// outcome(item) with item = "O=C(NC(=O)c1c(F)cccc1F)Nc1ccc(Cl)cc1" inactive

// outcome(item) with item = "Nn1cnnc1" inactive

// outcome(item) with item = "C1=Cc2cccc3cccc1c23" inactive

// outcome(item) with item = "CCN(CC)C(=O)SCc1ccc(Cl)cc1" inactive

// outcome(item) with item = "O=S(=O)(Oc1ccc(Cl)cc1)c1ccc(Cl)cc1" inactive

// outcome(item) with item = "O=Cc1ccco1" inactive

// outcome(item) with item = "CCc1cccc(CC)c1N(COC)C(=O)CCl" inactive

// outcome(item) with item = "N#CC(Br)Br" inactive

// outcome(item) with item = "CCC(=O)O[C@H]1CC[C@H]2[C@@H]3CCC4=CC(=O)CC[C@]4(C)[C@H]3CC[C@]12C" inactive

// outcome(item) with item = "O=P(O)(O)CCCl" inactive

// outcome(item) with item = "Nc1cccnc1" inactive

// outcome(item) with item = "Cc1ccccc1[N+](=O)[O-]" inactive

// outcome(item) with item = "Cc1cccc(N)c1N" inactive

// outcome(item) with item = CCOC(=O)C(C)OC(=O)c1cc(Oc2ccc(C(F)(F)F)cc2Cl)ccc1[N+](=O)[O-] (centres undefined) inactive

// outcome(item) with item = "CCCCOCCOP(=O)(OCCOCCCC)OCCOCCCC" inactive

// outcome(item) with item = "CCC(C)(C)c1ccc(O)cc1" inactive

// outcome(item) with item = "N#Cc1cc(Br)c(O)c(Br)c1" inactive

// outcome(item) with item = "CC(C)(OOC(C)(C)c1ccccc1)c1ccccc1" inactive

// outcome(item) with item = "COP(=O)(OC)OC" inactive

// outcome(item) with item = CCC(C)c1ccc(O)cc1 (centres undefined) inactive

// outcome(item) with item = "C=CCc1ccc2c(c1)OCO2" inactive

// outcome(item) with item = "c1ccc(N=Nc2ccccc2)cc1" inactive

// outcome(item) with item = "CCN(N=O)C(N)=O" inactive

// outcome(item) with item = "CNC(=O)N(C)c1nnc(C(C)(C)C)s1" inactive

// outcome(item) with item = "Oc1cc(Cl)ccc1Oc1ccc(Cl)cc1Cl" active

// outcome(item) with item = c1cc(OCC2CO2)ccc1Cc1ccc(OCC2CO2)cc1 (centres undefined) inactive

// outcome(item) with item = "N#CCCCl" inactive

// outcome(item) with item = "COC(=O)c1sccc1S(=O)(=O)NC(=O)Nc1nc(C)nc(OC)n1" inactive

// outcome(item) with item = "c1nc[nH]n1" inactive

// outcome(item) with item = "C[C@]12CCC(=O)C(O)=C1CC[C@@H]1[C@@H]2CC[C@]2(C)C(=O)CC[C@@H]12" inactive

* * *

assay: A CellTox Green Cytotoxicity Assay to monitor cytotoxicity in HEK293 cells - 24 hour (AID 1224875); details: CellTox Green fluorescence; series mostly up to 76.8 µM; further: nearly all actives have a fitted effect of over 45% in size
Records with an inconclusive call do not appear. The source made the active and inactive calls. Calls come from the whole dose curve; as a rule, active = well fitted activation curve with a large enough effect in the repeat runs; inconclusive = weak or mixed curves; inactive = flat fitted curve, though single readings scatter.
Outcome field: choose from true (1) for active, false (0) for inactive

// outcome(item) with item = "N#CC(Br)Br" false (0)

// outcome(item) with item = "c1nc[nH]n1" false (0)

// outcome(item) with item = "Oc1cc(Cl)ccc1Oc1ccc(Cl)cc1Cl" true (1)

// outcome(item) with item = "O=C1C=CC(=O)C=C1" false (0)

// outcome(item) with item = "COP(=S)(OC)Oc1ccc([N+](=O)[O-])cc1" false (0)

// outcome(item) with item = "N#Cc1cc(Br)c(O)c(Br)c1" false (0)

// outcome(item) with item = "Clc1nc(Cl)nc(Cl)n1" false (0)

// outcome(item) with item = CC(C)C(=O)OCC(C)(C)C(OC(=O)C(C)C)C(C)C (stereo not drawn) false (0)

// outcome(item) with item = "Oc1ccc(-c2ccccc2)cc1" false (0)

// outcome(item) with item = "C1=Cc2cccc3cccc1c23" true (1)

// outcome(item) with item = "COP(=S)(OC)Oc1cc(Cl)c(Cl)cc1Cl" false (0)

// outcome(item) with item = "Nc1cccnc1" false (0)

// outcome(item) with item = "CCN(N=O)C(N)=O" false (0)

// outcome(item) with item = "N#CCCCl" false (0)

// outcome(item) with item = "c1ccc(NNc2ccccc2)cc1" true (1)

// outcome(item) with item = "C=CCc1ccc(OC)cc1" false (0)

// outcome(item) with item = "CCOc1cc(C=O)ccc1O" false (0)

// outcome(item) with item = CCCCC(CC)COC(=O)c1ccc(C(=O)OCC(CC)CCCC)c(C(=O)OCC(CC)CCCC)c1 (stereo not drawn) false (0)

// outcome(item) with item = "CN(C)C(=O)Nc1ccc(Cl)cc1" false (0)

// outcome(item) with item = "CCN(CC)C(=O)/C(Cl)=C(\C)OP(=O)(OC)OC" false (0)

// outcome(item) with item = "Cc1ccc(OP(=O)(Oc2ccc(C)cc2)Oc2ccc(C)cc2)cc1" false (0)

// outcome(item) with item = CCOC(=O)C(C)OC(=O)c1cc(Oc2ccc(C(F)(F)F)cc2Cl)ccc1[N+](=O)[O-] (stereo not drawn) false (0)

// outcome(item) with item = O=c1oc2ccccc2c(O)c1C(CC(O)c1ccc(-c2ccc(Br)cc2)cc1)c1ccccc1 (stereo not drawn) false (0)

// outcome(item) with item = "C[C@]12CCC(=O)C[C@@H]1CC[C@@H]1[C@@H]2CC[C@]2(C)[C@@H](O)CC[C@@H]12" false (0)

// outcome(item) with item = "NNC(N)=S" false (0)

// outcome(item) with item = "CNC(=O)Oc1cccc2c1OC(C)(C)O2" false (0)

// outcome(item) with item = "CCc1cccc(CC)c1N(COC)C(=O)CCl" false (0)

// outcome(item) with item = CC(C)=CC1C(C(=O)OCc2coc(Cc3ccccc3)c2)C1(C)C (stereo not drawn) false (0)

// outcome(item) with item = "O=C(NC(=O)c1c(F)cccc1F)Nc1ccc(Cl)cc1" false (0)

// outcome(item) with item = "Brc1ccc(Oc2cc(Br)c(Br)cc2Br)c(Br)c1" false (0)

// outcome(item) with item = "Nc1c(Cl)cc([N+](=O)[O-])cc1Cl" false (0)

// outcome(item) with item = "O=C(CCl)c1ccccc1" false (0)

// outcome(item) with item = "COc1ccc(C=O)cc1" false (0)

Sourced from PubChem BioAssay (Tox21)
